Source listed as patent US20160272706A1.

// reported Fld improvement for each item listed
# targetOfAssay: T1, Human IL-13 (human, UniProt P35225 35-146)
# T1 construct: also called human interleukin 13 (Peprotech); the antigen
# T1 sequence (P35225 35-146 limits assumed): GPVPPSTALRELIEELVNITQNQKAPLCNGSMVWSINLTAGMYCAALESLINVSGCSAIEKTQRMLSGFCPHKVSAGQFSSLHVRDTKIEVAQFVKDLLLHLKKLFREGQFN
# assayMethodText: IC50 of the parent scFv divided by IC50 of the clone, biochemical receptor-ligand inhibition assay, purified scFv
Provide the reading as a plain figure in fold.

1. BAK1183H4 antibody (antibody, V domains shown, also called 1183H04; BAK1183H04) VH: QVQLVQSGAEVKKPGASVKVSCKASGYTFTNYGLSWVRQAPGQGLEWMGWINYDGGNTQYGQEFQGRVTMTTDTSTSTAYMELRSLRSDDTAVYYCARDSSSSWARWFFDLWGRGTLVTVSS VL: SYVLTQPPSVSVAPGKTARIPCGGNIIGSKLVHWYQQKPGQAPVLVIYDDGDRPSGIPERFSGSNSGNTATLTISRVEAGDEADYYCQVWDTGSDPVVFGGGTKLTVL; 1

Pending binder:
Query: Can you look up the measured Fld improvement of 13NG0073 (antibody, V domains shown, IgG in the KinExA assay; also called IL13NG0073) VH: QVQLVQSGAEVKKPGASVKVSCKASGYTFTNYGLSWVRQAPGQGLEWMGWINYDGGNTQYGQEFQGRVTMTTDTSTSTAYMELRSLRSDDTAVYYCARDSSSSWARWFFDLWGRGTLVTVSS VL: SYVLTQPPSVSVAPGKTARIPCGGNLIGARLVHWYQQKPGQAPVLIIMDDIDRPSGIPERFSGSNSGNTATLTISRVEAGDEADYYCQVWDTGSRPVVFGGGTKLTVL for me?
Response: 5.02
